Assay: small-molecule binders of probe aNOTCH3, primary screen, biochemical, small-molecule microarray, 635/667 nm fluorescence (AID 1120);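 note: probe is a biotin-tagged antibody raised against NOTCH3 rather than NOTCH3 protein; score merges spot fluorescence near 667 nm with spot signal to noise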
Details: higher = more signal
assay.metric: composite z-score
Answer field: number only, no words.

compound	composite z-score
C=CCN1C(=O)[C@]2(O[C@H](CCn3cc([C@H](O)c4ccccc4)nn3)[C@@H]([Si](C)(C)c3ccc(OC)cc3)[C@@H]2C)c2cc(N3CCOC3=O)ccc21	-0.272
C=CCC(OC(C)=O)[C@@H]1[C@@H](N(Cc2ccc(-c3cccc(C(F)(F)F)c3)o2)C(=O)c2ccc(-c3ccccc3)cc2)c2cc(OCCCO)ccc2N1C(=O)Cc1ccc(OC)cc1 (stereo partly specified)	-0.0647
CC(C)C(CO)N1C(=O)[C@@H]2C3C(=O)OCCC/C=C\[C@H]3OC23C=CCN(C(C)C)C(=O)[C@@H]13 (stereo partly specified)	-0.214

In: What value of composite z-score has been reported for the following compound? C=C(/C(=C/C[C@H](OC(=O)c1ccncc1)c1cccc(OCCO)c1)c1cc(C(=O)OC)ccc1OC)C(C)C
Out: -0.16

In: What value of composite z-score has been reported for the following compound? COc1ccc([Si](C)(C)[C@H]2[C@H](CC(=O)N(CCO)Cc3ccccc3)O[C@@]3(C(=O)N(Cc4cccc(N5C(=O)COc6ccccc65)c4)c4ccccc43)[C@@H]2C)cc1
Out: 0.0961

In: What value of composite z-score has been reported for the following compound? CCCNC(=O)[C@@H]1c2ccccc2C(=O)N(Cc2cc(C(F)(F)F)cc(C(F)(F)F)c2)[C@H]1c1ccc(CO)cc1
Out: -0.0343
